Reference for the values: ChEMBL document CHEMBL4725476

System Tested: 5'-nucleotidase (Homo sapiens)
Sequence (P21589 whole entry): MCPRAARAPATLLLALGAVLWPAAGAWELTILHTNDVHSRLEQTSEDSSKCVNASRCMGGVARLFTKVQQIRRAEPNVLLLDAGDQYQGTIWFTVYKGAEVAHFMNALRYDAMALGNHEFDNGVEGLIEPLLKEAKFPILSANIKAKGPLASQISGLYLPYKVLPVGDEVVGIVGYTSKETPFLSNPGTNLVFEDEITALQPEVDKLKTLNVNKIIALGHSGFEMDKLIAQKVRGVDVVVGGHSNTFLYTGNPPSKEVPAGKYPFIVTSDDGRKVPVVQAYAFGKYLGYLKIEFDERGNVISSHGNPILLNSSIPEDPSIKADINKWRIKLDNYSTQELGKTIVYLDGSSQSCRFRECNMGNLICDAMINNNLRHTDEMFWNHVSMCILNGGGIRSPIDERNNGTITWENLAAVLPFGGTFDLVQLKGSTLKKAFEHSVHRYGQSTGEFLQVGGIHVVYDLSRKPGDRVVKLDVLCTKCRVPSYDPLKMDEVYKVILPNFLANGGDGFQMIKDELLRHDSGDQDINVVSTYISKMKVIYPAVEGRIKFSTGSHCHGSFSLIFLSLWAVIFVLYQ
Assay Procedure: Inhibition of CD73 in human MDA-MB-231 cells using [2,8-3H]-AMP as substrate incubated for 25 mins by scintillation counting method
Assay type: cell-based
Readout Label: Ki (nM)
Quick reminder: number only, in nM, skip the unit.

Query: Ki; subject: O=C(NCCCCCCNC(=O)c1ccc2c(c1)C1(OC2=O)c2ccc(O)cc2Oc2cc(O)ccc21)c1ccc(CNc2ncnc3c2ncn3[C@@H]2O[C@H](COP(=O)(O)CP(=O)(O)O)[C@@H](O)[C@H]2O)cc1
4.59
